Biological target: EGFR L858R/C797S (Homo sapiens, UniProt P00533, C797S/L858R)
Sequence (P00533 25-1210 C797S/L858R): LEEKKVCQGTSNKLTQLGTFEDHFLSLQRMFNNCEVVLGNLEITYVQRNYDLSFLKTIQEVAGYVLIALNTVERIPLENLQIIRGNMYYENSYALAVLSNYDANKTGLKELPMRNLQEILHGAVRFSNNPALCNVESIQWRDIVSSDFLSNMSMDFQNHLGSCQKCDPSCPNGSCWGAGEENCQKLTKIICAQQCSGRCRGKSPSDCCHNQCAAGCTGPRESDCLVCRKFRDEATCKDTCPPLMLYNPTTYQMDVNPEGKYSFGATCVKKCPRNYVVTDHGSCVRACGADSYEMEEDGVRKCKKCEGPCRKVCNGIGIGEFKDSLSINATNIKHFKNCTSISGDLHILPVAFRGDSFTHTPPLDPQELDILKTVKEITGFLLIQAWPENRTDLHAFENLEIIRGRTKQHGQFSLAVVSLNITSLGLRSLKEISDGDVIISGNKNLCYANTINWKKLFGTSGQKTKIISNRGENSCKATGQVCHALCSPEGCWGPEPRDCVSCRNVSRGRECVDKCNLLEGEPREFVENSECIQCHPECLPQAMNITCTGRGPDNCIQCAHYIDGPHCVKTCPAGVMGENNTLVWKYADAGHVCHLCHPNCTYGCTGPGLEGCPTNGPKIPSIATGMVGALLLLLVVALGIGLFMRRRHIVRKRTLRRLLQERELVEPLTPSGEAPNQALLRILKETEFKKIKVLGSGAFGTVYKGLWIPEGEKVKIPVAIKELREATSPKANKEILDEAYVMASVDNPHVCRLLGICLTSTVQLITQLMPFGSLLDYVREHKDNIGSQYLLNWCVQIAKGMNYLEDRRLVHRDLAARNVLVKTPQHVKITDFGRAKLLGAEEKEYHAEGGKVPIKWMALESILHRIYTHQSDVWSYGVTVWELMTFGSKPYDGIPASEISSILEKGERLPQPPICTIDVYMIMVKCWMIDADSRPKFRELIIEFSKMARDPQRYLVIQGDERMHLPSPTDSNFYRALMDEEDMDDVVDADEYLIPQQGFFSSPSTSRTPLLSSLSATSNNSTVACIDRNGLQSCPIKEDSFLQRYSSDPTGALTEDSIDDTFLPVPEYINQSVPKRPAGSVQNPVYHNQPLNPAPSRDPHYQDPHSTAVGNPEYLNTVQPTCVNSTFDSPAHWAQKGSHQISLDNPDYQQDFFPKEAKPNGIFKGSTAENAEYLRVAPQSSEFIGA
Assay: Biochemical EGFR kinase assay (Lance Ultra TR-FRET), double mutant L858R/C797S
Conditions: Km ATP; read-out: IC50 L858R/C797S (nM) Km ATP
PROPERTY LABEL: IC50 (nM)

Guide cases for IC50, answers given:
Item under review: O=S(=O)(C1CC1)n1cc(-c2nccc(Nc3cc(N[C@H]4CC[C@@H](CO)CC4)c(-c4ccc(N5CCC(F)(F)CC5)nn4)cn3)n2)cn1 . Reported IC50? 1.4

Item under review: COc1c(F)ccnc1-c1cnc(Nc2ccnc(-c3cnn(S(=O)(=O)C4CC4)c3)n2)cc1N[C@H]1CC[C@@](C)(O)CC1 . Reported IC50? 1780

Item under review: CC(C)(O)[C@H]1CC[C@@H](Nc2cc(Nc3ccnc(-c4cnn(S(=O)(=O)C5CC5)c4)n3)ncc2-c2ccc(CO)cn2)CC1 . Reported IC50? 0.7

Item under review: CN(C)C[C@H]1CC[C@@H](Nc2cc(Nc3ccnc(-c4cnn(S(=O)(=O)C5CC5)c4)n3)ncc2-c2cnc(OC(F)F)cn2)CC1 . Reported IC50? 2.2

Item under review: C[C@]1(O)CC[C@@H](Nc2cc(Nc3ccnc(-c4cnn(S(=O)(=O)C5CC5)c4)n3)ncc2-c2ncccc2OCC(F)F)CC1 . Reported IC50? 191

[P] CC(C)(O)c1cnc(-c2cnc(Nc3ccnc(-c4cnn(S(=O)(=O)C5CC5)c4)n3)cc2N[C@H]2CC[C@@H](CO)CC2)cn1
[Q] O=S(=O)(C1CC1)n1cc(-c2nccc(Nc3cc(N[C@H]4CC[C@@H](CCO)CC4)c(-c4cc(C(F)F)ccn4)cn3)n2)cn1
Sort P and Q by IC50 descending and give the first. Use the label to indicate which entry you chose. Q
(Q: 2 nM, P: 0.03 nM)

[A] O=S(=O)(C1CC1)n1cc(-c2nccc(Nc3cc(N[C@H]4CC[C@@H](F)CC4)c(-c4ccc(CN5CCOCC5)cn4)cn3)n2)cn1
[B] CN1CCC(Oc2cnc(-c3cnc(Nc4ccnc(-c5cnn(S(=O)(=O)C6CC6)c5)n4)cc3N[C@H]3CC[C@@H](F)CC3)cn2)CC1
[C] C[C@]1(O)CC[C@@H](Nc2cc(Nc3ccnc(-c4cnn(S(=O)(=O)C5CC5)c4)n3)ncc2-c2cnc(N3CCC(F)(F)CC3)cn2)CC1
[D] O=S(=O)(C1CC1)n1cc(-c2nccc(Nc3cc(N[C@H]4CC[C@](O)(CO)CC4)c(-c4ccccn4)cn3)n2)cn1
Could you please sort these 4 entries by IC50 from high to low? Write the labels, ordered according to the request. C, A, B, D

[A] CN1CCC(Oc2ccc(-c3cnc(Nc4ccnc(-c5cnn(S(=O)(=O)C6CC6)c5)n4)cc3NC3CC(F)(F)C3)nc2)CC1
[B] Cc1ccc(-c2cnc(Nc3ccnc(-c4cnn(S(=O)(=O)C5CC5)c4)n3)cc2N[C@H]2CC[C@@](C)(O)CC2)nn1
[C] CC(C)N1CCN(Cc2ccc(-c3cnc(Nc4ccnc(-c5cnn(S(=O)(=O)C6CC6)c5)n4)cc3N[C@H]3CC[C@@](C)(O)CC3)nc2)CC1
[D] CN1CCC(Oc2ccc(-c3cnc(Nc4ccnc(-c5cnn(S(=O)(=O)C6CC6)c5)n4)cc3N[C@H]3CC[C@@H](F)CC3)nc2)CC1
Which order do these items take when sorted by rising IC50? List them. Write the labels, ordered according to the request. C, D, B, A

[I] C[C@]1(O)CC[C@@H](Nc2cc(Nc3ccnc(-c4cnn(S(=O)(=O)C5CC5)c4)n3)ncc2-c2ccc(N3CCCCC3)cn2)CC1
[II] Cc1cc(-c2cnc(Nc3ccnc(-c4cnn(S(=O)(=O)C5CC5)c4)n3)cc2N[C@H]2CC[C@@](C)(O)CC2)nnc1C
[III] CN1CCC(Oc2cnc(-c3cnc(Nc4ccnc(-c5cnn(S(=O)(=O)C6CC6)c5)n4)cc3N[C@H]3CC[C@@](C)(O)CC3)cn2)CC1
[IV] O=S(=O)(C1CC1)n1cc(-c2nccc(Nc3cc(N[C@H]4CC[C@H](CCO)CC4)c(-c4cc(C(F)F)ccn4)cn3)n2)cn1
[V] CC(C)(O)[C@H]1CC[C@@H](Nc2cc(Nc3ccnc(-c4cnn(S(=O)(=O)C5CC5)c4)n3)ncc2-c2cnc(N3CCC(F)(F)CC3)cn2)CC1
Could you please sort these 5 entries by IC50 from high to low? Write the labels, ordered according to the request. V, IV, I, II, III
(V: 61.4 nM, IV: 27.4 nM, I: 1.4 nM, II: 0.4 nM, III: 0.1 nM)
